Tested on: MALME-3M melanoma
assayText: NCI tumour cell line growth inhibition, 48 h
testReadout: TGI

Returns the measured TGI for the input molecule. Input: `CCOC(=O)C(/C=N\C(=S)Nc1c(CC)cccc1C(C)(C)C)=C(/O)c1ccccc1`
> 100 µM

Returns the measured TGI for the input molecule. Input: `CC(=O)O[C@H]1C(=O)[C@@]2(C)[C@H]([C@H](OC(=O)c3ccccc3)[C@]3(O)C[C@H](OC(=O)[C@H](O)[C@@H](NC(=O)c4ccccc4)c4ccccc4C)C(C)=C1C3(C)C)[C@]1(OC(C)=O)CO[C@@H]1C[C@@H]2O`
> 24 µM

Returns the measured TGI for the input molecule. Input: `O=c1c(Cc2c(O)ccc3ccccc23)nnc2sc(-c3nn4c(=O)c(Cc5c(O)ccc6ccccc56)nnc4s3)nn12`
> 100 µM

Returns the measured TGI for the input molecule. Input: CCCCCCCCOCC(CO)OCCCCCCCC (centres undefined)
34.9 µM

Returns the measured TGI for the input molecule. Input: `CCn1c(=O)c(Oc2ccc(F)cc2F)cc2cnc(NC3CCOCC3)nc21`
> 25 µM

Returns the measured TGI for the input molecule. Input: `COc1ccc(/C=C/C(=O)c2cc3c(N)c(C(=O)Nc4cccc(Cl)c4C)sc3nc2C)cc1`
> 50 µM

Returns the measured TGI for the input molecule. Input: O=C(c1nc2ccc(Cl)cc2[nH]c1=O)C(O)c1ccccc1 (centres undefined)
> 100 µM

Returns the measured TGI for the input molecule. Input: `CCOc1ccc(N=Nc2ccc3oc(=O)c(/C(C)=N/NC(=O)CC(=O)Nc4cccc(OC)c4)cc3c2)cc1`
37.5 µM

Returns the measured TGI for the input molecule. Input: `N[C@]1(C(=O)O)C[C@@H]2C(Br)=NO[C@@H]2C1`
> 100 µM
